- System tested: Inadl_1, Q8NI35
- Sequence (Q8NI35 113-229): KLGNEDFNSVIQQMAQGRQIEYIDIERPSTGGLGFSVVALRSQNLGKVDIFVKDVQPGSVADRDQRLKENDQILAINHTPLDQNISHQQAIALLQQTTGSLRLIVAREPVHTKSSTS
- Protocol summary: holdup assay
- Parameters: key: below the threshold = too weak to quantify, mostly under pKd 3.1 to 4
- Test conditions: plain residues with an end cap or a label only (N-terminal biotin on a linker: ado-ado)
Assay readout: pKd

# Binder, Assay readout, Endpoint result
measured = [
    ("QKNKDKEYYV [NRXN3_rs746444206, Q9Y4C0]", "pKd", 3.51),
    ("GFGEERESIL [KIDINS220, Q9ULH0]", "pKd", "below the threshold"),
    ("TETASVCTKV [SLC23A1, Q9UHI7]", "pKd", "below the threshold"),
    ("EEPEERHTEL [CES2, O00748]", "pKd", "below the threshold"),
    ("FVHPILQSAV [PRKCA, P17252]", "pKd", "below the threshold"),
]
